Data origin, for the record: patent US20230040909A1

biological target: hNav1.5 Peak (Homo sapiens, UniProt Q14524); assay: In vitro assessment of ion channels: hNav1.5 Peak; type: biochemical; settings: Table 3
pIC50: −log10 of the molar value.
readout.kind: pIC50

Inquiry: Given `C[Si]1(C)CCC(NC(=O)c2cc3c(Cl)cc(Cl)cc3[nH]2)CC1` , respond with its pIC50.
Reply text: < 5.00

Please look at the following molecule next.
Inquiry: Given `C[Si]1(C)CCC(NC(=O)c2cc3c(F)cc(F)cc3[nH]2)CC1` , respond with its pIC50.
Reply text: < 5.00

###

target: UniProtKB Q13936; experiment: biochemical; conditions: Table 2
Sequence (Q13936 whole entry): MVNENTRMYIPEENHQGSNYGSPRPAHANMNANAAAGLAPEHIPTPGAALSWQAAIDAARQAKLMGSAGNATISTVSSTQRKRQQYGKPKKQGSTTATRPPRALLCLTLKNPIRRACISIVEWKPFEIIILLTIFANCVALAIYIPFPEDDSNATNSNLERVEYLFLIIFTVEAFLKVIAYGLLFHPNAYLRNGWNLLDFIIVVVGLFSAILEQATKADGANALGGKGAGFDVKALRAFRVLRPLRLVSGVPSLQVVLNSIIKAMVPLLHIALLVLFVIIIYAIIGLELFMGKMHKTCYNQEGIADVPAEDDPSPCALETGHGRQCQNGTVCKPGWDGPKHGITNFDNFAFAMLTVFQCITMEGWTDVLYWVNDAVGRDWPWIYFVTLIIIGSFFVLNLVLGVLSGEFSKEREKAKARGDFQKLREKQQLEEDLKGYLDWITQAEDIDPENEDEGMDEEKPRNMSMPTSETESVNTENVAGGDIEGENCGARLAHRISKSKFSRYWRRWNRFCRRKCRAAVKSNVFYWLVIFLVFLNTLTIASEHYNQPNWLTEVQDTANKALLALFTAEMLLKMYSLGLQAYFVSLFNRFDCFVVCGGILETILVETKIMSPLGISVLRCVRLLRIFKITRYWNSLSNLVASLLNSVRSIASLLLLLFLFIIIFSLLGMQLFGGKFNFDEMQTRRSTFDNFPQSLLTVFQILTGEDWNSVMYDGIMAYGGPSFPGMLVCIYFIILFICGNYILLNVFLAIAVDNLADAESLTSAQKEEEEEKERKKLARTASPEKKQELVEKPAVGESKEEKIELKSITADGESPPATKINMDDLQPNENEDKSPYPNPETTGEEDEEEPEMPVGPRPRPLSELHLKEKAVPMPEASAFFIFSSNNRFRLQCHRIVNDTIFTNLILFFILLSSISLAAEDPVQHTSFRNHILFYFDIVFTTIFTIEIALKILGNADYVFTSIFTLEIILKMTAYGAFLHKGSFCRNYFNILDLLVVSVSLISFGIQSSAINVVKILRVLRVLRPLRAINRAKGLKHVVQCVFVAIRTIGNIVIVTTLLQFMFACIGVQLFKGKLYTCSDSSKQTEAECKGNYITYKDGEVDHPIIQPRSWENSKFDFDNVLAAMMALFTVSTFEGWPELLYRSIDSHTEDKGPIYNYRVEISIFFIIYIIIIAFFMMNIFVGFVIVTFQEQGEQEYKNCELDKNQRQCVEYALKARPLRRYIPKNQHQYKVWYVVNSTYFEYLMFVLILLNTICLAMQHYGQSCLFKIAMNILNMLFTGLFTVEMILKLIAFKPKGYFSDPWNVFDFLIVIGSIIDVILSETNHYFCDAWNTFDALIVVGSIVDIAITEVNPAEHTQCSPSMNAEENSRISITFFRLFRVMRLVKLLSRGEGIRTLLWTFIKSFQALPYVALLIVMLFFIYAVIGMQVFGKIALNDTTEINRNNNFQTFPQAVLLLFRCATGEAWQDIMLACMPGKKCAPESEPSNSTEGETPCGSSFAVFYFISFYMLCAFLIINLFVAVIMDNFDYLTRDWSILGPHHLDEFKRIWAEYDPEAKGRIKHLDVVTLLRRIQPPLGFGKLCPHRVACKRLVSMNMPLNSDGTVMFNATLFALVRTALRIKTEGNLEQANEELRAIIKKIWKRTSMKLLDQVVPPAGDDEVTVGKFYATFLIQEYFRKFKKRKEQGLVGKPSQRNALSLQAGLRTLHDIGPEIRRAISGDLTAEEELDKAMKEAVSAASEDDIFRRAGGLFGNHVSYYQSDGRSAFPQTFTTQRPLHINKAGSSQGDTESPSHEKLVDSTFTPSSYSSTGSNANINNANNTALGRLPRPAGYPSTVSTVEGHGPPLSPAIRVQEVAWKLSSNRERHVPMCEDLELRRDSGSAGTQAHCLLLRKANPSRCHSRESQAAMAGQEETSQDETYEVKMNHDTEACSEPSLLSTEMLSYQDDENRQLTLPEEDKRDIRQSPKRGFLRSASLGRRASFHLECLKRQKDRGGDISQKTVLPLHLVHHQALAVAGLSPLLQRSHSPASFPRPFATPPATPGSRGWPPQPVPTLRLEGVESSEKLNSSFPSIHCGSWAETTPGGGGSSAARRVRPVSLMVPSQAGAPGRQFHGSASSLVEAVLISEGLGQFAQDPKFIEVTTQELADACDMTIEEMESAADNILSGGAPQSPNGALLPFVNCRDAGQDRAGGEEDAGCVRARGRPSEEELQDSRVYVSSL
Sequence (Q08289 whole entry partner): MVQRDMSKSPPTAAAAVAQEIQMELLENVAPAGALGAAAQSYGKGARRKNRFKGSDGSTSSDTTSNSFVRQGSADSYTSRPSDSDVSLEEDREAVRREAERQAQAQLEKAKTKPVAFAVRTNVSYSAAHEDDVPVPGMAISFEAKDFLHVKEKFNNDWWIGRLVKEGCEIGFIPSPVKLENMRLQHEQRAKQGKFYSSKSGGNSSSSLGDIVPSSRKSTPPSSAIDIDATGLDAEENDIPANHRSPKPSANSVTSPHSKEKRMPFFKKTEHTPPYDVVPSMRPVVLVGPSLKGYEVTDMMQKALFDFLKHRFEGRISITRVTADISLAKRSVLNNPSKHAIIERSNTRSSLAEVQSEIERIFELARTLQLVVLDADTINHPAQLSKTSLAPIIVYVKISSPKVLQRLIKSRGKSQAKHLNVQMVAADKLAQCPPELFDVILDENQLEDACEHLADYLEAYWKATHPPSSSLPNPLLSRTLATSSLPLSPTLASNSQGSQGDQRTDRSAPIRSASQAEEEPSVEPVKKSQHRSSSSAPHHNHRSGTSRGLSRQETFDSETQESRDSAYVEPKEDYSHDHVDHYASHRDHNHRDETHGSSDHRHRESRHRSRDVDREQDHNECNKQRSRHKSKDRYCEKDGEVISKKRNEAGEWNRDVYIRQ
Sequence (P54289 25-946 partner limits assumed): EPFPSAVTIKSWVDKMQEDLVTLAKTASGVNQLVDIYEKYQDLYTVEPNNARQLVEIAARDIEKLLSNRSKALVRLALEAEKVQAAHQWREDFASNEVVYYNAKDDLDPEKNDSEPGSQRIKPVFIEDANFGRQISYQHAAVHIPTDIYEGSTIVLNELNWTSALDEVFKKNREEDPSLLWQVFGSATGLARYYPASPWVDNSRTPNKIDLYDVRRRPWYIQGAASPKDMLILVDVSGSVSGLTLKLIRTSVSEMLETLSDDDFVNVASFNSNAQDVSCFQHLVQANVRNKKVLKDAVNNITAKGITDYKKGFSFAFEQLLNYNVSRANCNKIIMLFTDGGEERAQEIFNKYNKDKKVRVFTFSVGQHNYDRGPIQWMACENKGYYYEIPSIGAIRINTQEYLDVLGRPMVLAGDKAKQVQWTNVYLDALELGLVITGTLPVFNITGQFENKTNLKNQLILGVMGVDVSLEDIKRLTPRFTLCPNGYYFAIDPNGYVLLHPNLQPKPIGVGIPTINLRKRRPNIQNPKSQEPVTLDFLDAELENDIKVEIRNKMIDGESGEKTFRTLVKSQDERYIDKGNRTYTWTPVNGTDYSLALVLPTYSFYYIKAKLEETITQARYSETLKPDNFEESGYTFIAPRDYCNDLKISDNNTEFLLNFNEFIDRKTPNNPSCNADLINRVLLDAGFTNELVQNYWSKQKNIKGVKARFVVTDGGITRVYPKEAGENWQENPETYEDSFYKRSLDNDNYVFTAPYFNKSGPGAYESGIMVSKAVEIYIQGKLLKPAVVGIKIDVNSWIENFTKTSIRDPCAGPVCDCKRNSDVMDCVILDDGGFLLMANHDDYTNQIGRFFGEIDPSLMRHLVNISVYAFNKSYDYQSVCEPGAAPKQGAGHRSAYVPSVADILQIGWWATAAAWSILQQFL
Sequence (P54289 947-1103 partner limits assumed): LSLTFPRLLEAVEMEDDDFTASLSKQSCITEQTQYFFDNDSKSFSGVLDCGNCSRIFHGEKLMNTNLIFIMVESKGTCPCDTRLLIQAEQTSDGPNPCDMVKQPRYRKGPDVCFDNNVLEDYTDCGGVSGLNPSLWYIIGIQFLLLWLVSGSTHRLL
readout.kind: IC50 (µM)
Form entry: value (µM) — number only.

Inquiry: Given CC1(C)CCC(NC(=O)c2cc3c(Cl)cc(Cl)cc3[nH]2)CC1 [NITD-304] , respond with its IC50.
Reply text: 2.01

Others:
Inquiry: Given CC1(C)CCC(NC(=O)c2cc3c(F)cc(F)cc3[nH]2)CC1 [NITD-349] , respond with its IC50.
Reply text: 9.53

###

test: VERO cell cytotoxicity; format: cell-based; settings: African green monkey, VERO cells
In this section we review reported IC50 values for a set of molecules.

Inquiry: Given `Cc1cc(C)c2cc(C(=O)NC3CC[Si]4(CCCC4)CC3)[nH]c2c1` , respond with its IC50.
Reply text: > 20 µg/mL

Inquiry: Given `Cc1cc(C(F)(F)F)c2cc(C(=O)NC3CC[Si](C)(C)CC3)[nH]c2c1` , respond with its IC50.
Reply text: > 20 µg/mL

Inquiry: Given C[Si]1(C)CC[C@H](NC(=O)c2cc3c(Cl)cc(Cl)cc3[nH]2)C1 (single isomer, unassigned) [MPL-399B] , respond with its IC50.
Reply text: 52 µg/mL

Others:
Inquiry: Given `Cc1cc(C)c2cc(C(=O)NC3CC[Si]4(CCCCC4)CC3)[nH]c2c1` , respond with its IC50.
Reply text: > 20 µg/mL

###

assay: VERO cell cytotoxicity; format: cell-based; conditions: African green monkey, VERO cells
readout.kind: IC50

Inquiry: Given `Cc1cc(Br)c2cc(C(=O)NC3CC[Si](C)(C)CC3)[nH]c2c1` , respond with its IC50.
Reply text: > 20 µg/mL

Inquiry: Given `O=C(NC1CC[Si]2(CCCC2)CC1)c1cc2c(F)cc(F)cc2[nH]1` , respond with its IC50.
Reply text: > 20 µg/mL

Inquiry: Given `Cc1cc(C)c2cc(C(=O)NC3CCC[Si](C)(C)CCC3)[nH]c2c1` , respond with its IC50.
Reply text: > 20 µg/mL

Please look at the following compound next.
Inquiry: Given `Cc1cc(C)c2cc(C(=O)NC3CC[Si](C)(C)CC3)[nH]c2c1` , respond with its IC50.
Reply text: > 20 µg/mL

###

In this section we review reported IC50 values for a set of compounds.
Assay: VERO cell cytotoxicity
Assay type: cell-based
Settings: African green monkey, VERO cells
Source text: The procedures described in Falzari 2005 were used to generate the data shown in column 2 of Table 4.

// below: answered compounds
Inquiry: Given C[Si]1(C)CCC(NC(=O)c2cc3c(C(F)(F)F)cc(C(F)(F)F)cc3[nH]2)CC1 [MPL-336] , respond with its IC50.
Reply text: > 20 µg/mL

Inquiry: Given Cc1cc(C#N)c2cc(C(=O)NC3CC[Si](C)(C)CC3)[nH]c2c1 [MPL-344] , respond with its IC50.
Reply text: > 20 µg/mL

Inquiry: Given C[Si]1(C)CCC(NC(=O)c2cc3c(F)cc(F)cc3[nH]2)C1 (stereo not drawn) [MPL-400] , respond with its IC50.
Reply text: > 20 µg/mL

Others:
Inquiry: Given C[Si]1(C)CCCC(NC(=O)c2cc3c(F)cc(F)cc3[nH]2)CC1 (stereo not drawn) [MPL-286] , respond with its IC50.
Reply text: > 20 µg/mL

Inquiry: Given C[Si]1(C)CCC(NC(=O)c2cc3c(Cl)cc(Cl)cc3[nH]2)CC1 [MPL-203] , respond with its IC50.
Reply text: > 32 µg/mL

Inquiry: Given C[Si]1(C)CCCC(NC(=O)c2cc3c(C(F)(F)F)cc(C(F)(F)F)cc3[nH]2)CC1 (stereo not drawn) [MPL-324] , respond with its IC50.
Reply text: > 20 µg/mL

Inquiry: Given COc1cc(F)cc2[nH]c(C(=O)NC3CC[Si](C)(C)CC3)cc12 [MPL-196] , respond with its IC50.
Reply text: > 32 µg/mL

Inquiry: Given O=C(NC1CC[Si]2(CCCC2)CC1)c1cc2c(Cl)cc(Cl)cc2[nH]1 [MPL-252] , respond with its IC50.
Reply text: > 20 µg/mL

Inquiry: Given C[Si]1(C)CCCCC(NC(=O)c2cc3c(C(F)(F)F)cc(C(F)(F)F)cc3[nH]2)CC1 (stereo not drawn) [MPL-325] , respond with its IC50.
Reply text: 16.4 µg/mL

Inquiry: Given Cc1cc(F)c2cc(C(=O)NC3CC[Si](C)(C)CC3)[nH]c2c1 [MPL-470] , respond with its IC50.
Reply text: > 20 µg/mL

Inquiry: Given C[Si]1(C)CCC(NC(=O)c2cc3c(Cl)cc(Cl)cc3[nH]2)C1 (racemic) [MPL-399] , respond with its IC50.
Reply text: > 20 µg/mL

Inquiry: Given Cc1cc(C)c2cc(C(=O)NC3CC[Si](C)(C)C3)[nH]c2c1 (racemic) [MPL-296] , respond with its IC50.
Reply text: 13.8 µg/mL

Inquiry: Given Cc1c(C(=O)NC2CC[Si](C)(C)CC2)[nH]c2cc(F)cc(F)c12 [MPL-335] , respond with its IC50.
Reply text: > 20 µg/mL
